pKd values by entry
Molecular target: T1, human a-Mesothelin (Acro Biosystems; MSN_H5223) (human, UniProt Q13421 296-580, limits assumed)
T1 construct: Bought protein immobilised on the SPR chip; Printed as 'a-Mesothelin' but used as the antigen for the anti-MSLN scFvs; also called Human MSLN; MSLN
T1 sequence (Q13421 other isoform, or with tags, fused parts or gaps limits assumed): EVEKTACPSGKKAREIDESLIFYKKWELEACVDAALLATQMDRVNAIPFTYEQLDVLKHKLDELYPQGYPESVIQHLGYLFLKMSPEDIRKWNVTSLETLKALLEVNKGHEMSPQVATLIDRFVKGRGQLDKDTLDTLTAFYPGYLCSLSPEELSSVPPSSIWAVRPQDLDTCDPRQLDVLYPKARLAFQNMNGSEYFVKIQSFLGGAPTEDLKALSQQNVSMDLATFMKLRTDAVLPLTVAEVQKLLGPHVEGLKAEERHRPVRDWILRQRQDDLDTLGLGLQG
Experiment: SPR, mesothelin immobilised, scFv analyte, 1:1 fit
Value format note: pKd is -log10 of concentration (mol/L); just state the number.

Bench note: what pKd did PRO2941 (scFv 54-21-H03-sc01_(T146K)) (scFv, PRO1922 variant; VH substitution, AHo numbering; also called PRO1922 T146K) scFv: DIQMTQSPSSLSASVGDRVTITCQASESIYSSLAWYQQKPGKAPKLLIYLASTLASGVPSRFSGSGSGTDFTLTISSLQPEDFATYYCQSTDYTTSTHRNSFGTGTKVTVLGGGGGSGGGGSGGGGSGGGGSEVQLVESGGGLVQPGGSLRLSCAASGFSFSTTYYMCWVRQAPGKGLEWIGCTNTASSVRTYYATWAKGRFTISRDNSKNTVYLQMNSLRAEDTAVYYCARDMGFADYALNLWGQGTLVKVSS show? 8.72

Please give the measured pKd for this binder: PRO3320 (scFv 54-21-H03-sc01_(L12A, T101S, L144K, T146Q)) (scFv, PRO1922 variant; VH substitutions, AHo numbering; also called PRO1922 L12A-T101S-L144K-T146Q) scFv: DIQMTQSPSSLSASVGDRVTITCQASESIYSSLAWYQQKPGKAPKLLIYLASTLASGVPSRFSGSGSGTDFTLTISSLQPEDFATYYCQSTDYTTSTHRNSFGTGTKVTVLGGGGGSGGGGSGGGGSGGGGSEVQLVESGGGAVQPGGSLRLSCAASGFSFSTTYYMCWVRQAPGKGLEWIGCTNTASSVRTYYATWAKGRFTISRDNSKNTVYLQMNSLRAEDSAVYYCARDMGFADYALNLWGQGTKVQVSS 8.80

So what's the measured pKd for this one? PRO2937 (scFv 54-21-H03-sc01_(T101S, L144A, T146Q)) (scFv, PRO1922 variant; VH substitutions, AHo numbering; also called PRO1922 T101S-L144A-T146Q) scFv: DIQMTQSPSSLSASVGDRVTITCQASESIYSSLAWYQQKPGKAPKLLIYLASTLASGVPSRFSGSGSGTDFTLTISSLQPEDFATYYCQSTDYTTSTHRNSFGTGTKVTVLGGGGGSGGGGSGGGGSGGGGSEVQLVESGGGLVQPGGSLRLSCAASGFSFSTTYYMCWVRQAPGKGLEWIGCTNTASSVRTYYATWAKGRFTISRDNSKNTVYLQMNSLRAEDSAVYYCARDMGFADYALNLWGQGTAVQVSS 8.72

Param item = PRO1922 (scFv 54-21-H03-sc01) (scFv, also called PRO1922 wt; a-MSLN wt) scFv: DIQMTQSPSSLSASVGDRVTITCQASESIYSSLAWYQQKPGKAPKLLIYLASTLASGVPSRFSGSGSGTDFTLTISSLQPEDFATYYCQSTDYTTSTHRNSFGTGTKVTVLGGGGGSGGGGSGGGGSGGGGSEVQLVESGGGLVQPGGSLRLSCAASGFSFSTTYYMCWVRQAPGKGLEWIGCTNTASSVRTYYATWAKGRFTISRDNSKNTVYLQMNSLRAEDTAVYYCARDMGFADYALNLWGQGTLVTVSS ; retrieve measured pKd. 8.74

Entry under review: PRO3325 (scFv 54-21-H03-sc01_(T101S, T146R)) (scFv, PRO1922 variant; VH substitutions, AHo numbering; also called PRO1922 T101S-T146R) scFv: DIQMTQSPSSLSASVGDRVTITCQASESIYSSLAWYQQKPGKAPKLLIYLASTLASGVPSRFSGSGSGTDFTLTISSLQPEDFATYYCQSTDYTTSTHRNSFGTGTKVTVLGGGGGSGGGGSGGGGSGGGGSEVQLVESGGGLVQPGGSLRLSCAASGFSFSTTYYMCWVRQAPGKGLEWIGCTNTASSVRTYYATWAKGRFTISRDNSKNTVYLQMNSLRAEDSAVYYCARDMGFADYALNLWGQGTLVRVSS . Reported pKd? 8.74
